tested on: 276233-004-R-J1-PDC complex spheroid viability; test: Anticancer human tumor 276233-004-R-J1-PDC patient-derived colon adenocarcinoma cell line growth inhibition [GQUAD]; conditions: second compound 0.0316 µM; first compound 0.0316 µM; hits give low values;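 note: spheroids exposed to drugs for seven days; 100% = DMSO vehicle control viability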
Kindly supply the reported viability, T/C values for the records listed here.
Give the quantity in %, number only.

Quick note, viability, T/C for C=CC(=O)N1CCN(c2nc(=O)n(-c3c(C)ccnc3C(C)C)c3nc(-c4c(O)cccc4F)c(F)cc23)C(C)C1 (centres undefined) + CN(C)c1ccc(Nc2c3ccc(NC(=O)CCN4CCCC4)cc3nc3cc(NC(=O)CCN4CCCC4)ccc23)cc1 landed at 93.1

Quick note, viability, T/C for CC(=O)O[C@H]1C(=O)[C@@]2(C)[C@H]([C@H](OC(=O)c3ccccc3)[C@]3(O)C[C@H](OC(=O)[C@H](O)[C@@H](NC(=O)c4ccccc4)c4ccccc4)C(C)=C1C3(C)C)[C@]1(OC(C)=O)CO[C@@H]1C[C@@H]2O + Cc1cnc(CNC(=O)c2c(=O)c3ccc(N4CCCN(C)CC4)nc3n3c2sc2ccccc23)cn1 landed at 72.5

Quick note, viability, T/C for COc1cccc2c1C(=O)c1c(O)c3c(c(O)c1C2=O)CC(O)(C(=O)CO)CC3OC1CC(N)C(O)C(C)O1 (centres undefined) + CN(C)c1ccc(Nc2c3ccc(NC(=O)CCN4CCCC4)cc3nc3cc(NC(=O)CCN4CCCC4)ccc23)cc1 landed at 88

Quick note, viability, T/C for Cn1ncnc1[C@H]1c2n[nH]c(=O)c3cc(F)cc(c23)N[C@@H]1c1ccc(F)cc1 + CN(C)c1ccc(Nc2c3ccc(NC(=O)CCN4CCCC4)cc3nc3cc(NC(=O)CCN4CCCC4)ccc23)cc1 landed at 88.2

Quick note, viability, T/C for O=C(NO)c1cnc(N2CCN(S(=O)(=O)c3ccc4ccccc4c3)CC2)nc1 + Cc1[nH]c2ccc(F)cc2c1-c1nc2c3cccnc3c3ncccc3c2[nH]1 landed at 87.1

Quick note, viability, T/C for CC[C@@]1(O)C(=O)OCc2c1cc1n(c2=O)Cc2cc3c(CN(C)C)c(O)ccc3nc2-1 + CN(C)c1ccc(Nc2c3ccc(NC(=O)CCN4CCCC4)cc3nc3cc(NC(=O)CCN4CCCC4)ccc23)cc1 landed at 103

Quick note, viability, T/C for Nc1ccn(C2OC(CO)C(O)C2(F)F)c(=O)n1 (centres undefined) + Cc1cnc(CNC(=O)c2c(=O)c3ccc(N4CCCN(C)CC4)nc3n3c2sc2ccccc23)cn1 landed at 82.7

Quick note, viability, T/C for CC(C)(O)C1CCC(Nc2ccc3ncc(-c4cccc(C(F)(F)F)c4)n3n2)CC1 (centres undefined) + Cc1cnc(CNC(=O)c2c(=O)c3ccc(N4CCCN(C)CC4)nc3n3c2sc2ccccc23)cn1 landed at 94.9

Quick note, viability, T/C for CC(=O)O[C@H]1C(=O)[C@@]2(C)[C@H]([C@H](OC(=O)c3ccccc3)[C@]3(O)C[C@H](OC(=O)[C@H](O)[C@@H](NC(=O)c4ccccc4)c4ccccc4)C(C)=C1C3(C)C)[C@]1(OC(C)=O)CO[C@@H]1C[C@@H]2O + CN(C)c1ccc(Nc2c3ccc(NC(=O)CCN4CCCC4)cc3nc3cc(NC(=O)CCN4CCCC4)ccc23)cc1 landed at 86.5

Quick note, viability, T/C for C=CC(=O)N1CCN(c2nc(=O)n(-c3c(C)ccnc3C(C)C)c3nc(-c4c(O)cccc4F)c(F)cc23)C(C)C1 (centres undefined) + Cc1[nH]c2ccc(F)cc2c1-c1nc2c3cccnc3c3ncccc3c2[nH]1 landed at 106

Quick note, viability, T/C for CC(C)n1c(=O)n(C)c2cnc3cc(F)c(-c4ccc(OCCCN5CCCCC5)nc4)cc3c21 + Cc1cnc(CNC(=O)c2c(=O)c3ccc(N4CCCN(C)CC4)nc3n3c2sc2ccccc23)cn1 landed at 81.3

Quick note, viability, T/C for CC(=O)O[C@H]1C(=O)[C@@]2(C)[C@H]([C@H](OC(=O)c3ccccc3)[C@]3(O)C[C@H](OC(=O)[C@H](O)[C@@H](NC(=O)c4ccccc4)c4ccccc4)C(C)=C1C3(C)C)[C@]1(OC(C)=O)CO[C@@H]1C[C@@H]2O + Cc1[nH]c2ccc(F)cc2c1-c1nc2c3cccnc3c3ncccc3c2[nH]1 landed at 82.4

Quick note, viability, T/C for CC1COCCN1c1cc(C2(S(C)(=N)=O)CC2)nc(-c2ccnc3[nH]ccc23)n1 (centres undefined) + Cc1[nH]c2ccc(F)cc2c1-c1nc2c3cccnc3c3ncccc3c2[nH]1 landed at 96.4

Quick note, viability, T/C for CC1COCCN1c1cc(C2(O)CC3CCC(C2)O3)c2cnn(-c3ccn[nH]3)c2n1 (centres undefined) + Cc1cnc(CNC(=O)c2c(=O)c3ccc(N4CCCN(C)CC4)nc3n3c2sc2ccccc23)cn1 landed at 81

Quick note, viability, T/C for Cc1cccc(N(C)C(=O)C2C(O)CCN2c2nc(C)cc(C(F)(F)F)c2C#N)c1 (centres undefined) + CN(C)c1ccc(Nc2c3ccc(NC(=O)CCN4CCCC4)cc3nc3cc(NC(=O)CCN4CCCC4)ccc23)cc1 landed at 77.3

Quick note, viability, T/C for COc1cc(C2c3cc4c(cc3C(OC3OC5COC(C)OC5C(O)C3O)C3COC(=O)C23)OCO4)cc(OC)c1O (centres undefined) + CN(C)c1ccc(Nc2c3ccc(NC(=O)CCN4CCCC4)cc3nc3cc(NC(=O)CCN4CCCC4)ccc23)cc1 landed at 95.7

Quick note, viability, T/C for O=C(c1cc(Cc2n[nH]c(=O)c3ccccc23)ccc1F)N1CCN(C(=O)C2CC2)CC1 + CN(C)c1ccc(Nc2c3ccc(NC(=O)CCN4CCCC4)cc3nc3cc(NC(=O)CCN4CCCC4)ccc23)cc1 landed at 76.4

Quick note, viability, T/C for COc1ncnc(C2CC2)c1-c1ncc2cnn(Cc3ccc(-c4nc(C(F)(F)F)cn4C(C)C)cc3)c2n1 + Cc1cnc(CNC(=O)c2c(=O)c3ccc(N4CCCN(C)CC4)nc3n3c2sc2ccccc23)cn1 landed at 81.9

Quick note, viability, T/C for CC[C@@]1(O)C(=O)OCc2c1cc1n(c2=O)Cc2cc3c(CN(C)C)c(O)ccc3nc2-1 + Cc1[nH]c2ccc(F)cc2c1-c1nc2c3cccnc3c3ncccc3c2[nH]1 landed at 89.2
